# targetSystem: intracellular GCN2 (phosphorylation of the GCN2 substrate eIF2α) (Homo sapiens, UniProt Q9P2K8)
# Sequence (Q9P2K8 whole entry): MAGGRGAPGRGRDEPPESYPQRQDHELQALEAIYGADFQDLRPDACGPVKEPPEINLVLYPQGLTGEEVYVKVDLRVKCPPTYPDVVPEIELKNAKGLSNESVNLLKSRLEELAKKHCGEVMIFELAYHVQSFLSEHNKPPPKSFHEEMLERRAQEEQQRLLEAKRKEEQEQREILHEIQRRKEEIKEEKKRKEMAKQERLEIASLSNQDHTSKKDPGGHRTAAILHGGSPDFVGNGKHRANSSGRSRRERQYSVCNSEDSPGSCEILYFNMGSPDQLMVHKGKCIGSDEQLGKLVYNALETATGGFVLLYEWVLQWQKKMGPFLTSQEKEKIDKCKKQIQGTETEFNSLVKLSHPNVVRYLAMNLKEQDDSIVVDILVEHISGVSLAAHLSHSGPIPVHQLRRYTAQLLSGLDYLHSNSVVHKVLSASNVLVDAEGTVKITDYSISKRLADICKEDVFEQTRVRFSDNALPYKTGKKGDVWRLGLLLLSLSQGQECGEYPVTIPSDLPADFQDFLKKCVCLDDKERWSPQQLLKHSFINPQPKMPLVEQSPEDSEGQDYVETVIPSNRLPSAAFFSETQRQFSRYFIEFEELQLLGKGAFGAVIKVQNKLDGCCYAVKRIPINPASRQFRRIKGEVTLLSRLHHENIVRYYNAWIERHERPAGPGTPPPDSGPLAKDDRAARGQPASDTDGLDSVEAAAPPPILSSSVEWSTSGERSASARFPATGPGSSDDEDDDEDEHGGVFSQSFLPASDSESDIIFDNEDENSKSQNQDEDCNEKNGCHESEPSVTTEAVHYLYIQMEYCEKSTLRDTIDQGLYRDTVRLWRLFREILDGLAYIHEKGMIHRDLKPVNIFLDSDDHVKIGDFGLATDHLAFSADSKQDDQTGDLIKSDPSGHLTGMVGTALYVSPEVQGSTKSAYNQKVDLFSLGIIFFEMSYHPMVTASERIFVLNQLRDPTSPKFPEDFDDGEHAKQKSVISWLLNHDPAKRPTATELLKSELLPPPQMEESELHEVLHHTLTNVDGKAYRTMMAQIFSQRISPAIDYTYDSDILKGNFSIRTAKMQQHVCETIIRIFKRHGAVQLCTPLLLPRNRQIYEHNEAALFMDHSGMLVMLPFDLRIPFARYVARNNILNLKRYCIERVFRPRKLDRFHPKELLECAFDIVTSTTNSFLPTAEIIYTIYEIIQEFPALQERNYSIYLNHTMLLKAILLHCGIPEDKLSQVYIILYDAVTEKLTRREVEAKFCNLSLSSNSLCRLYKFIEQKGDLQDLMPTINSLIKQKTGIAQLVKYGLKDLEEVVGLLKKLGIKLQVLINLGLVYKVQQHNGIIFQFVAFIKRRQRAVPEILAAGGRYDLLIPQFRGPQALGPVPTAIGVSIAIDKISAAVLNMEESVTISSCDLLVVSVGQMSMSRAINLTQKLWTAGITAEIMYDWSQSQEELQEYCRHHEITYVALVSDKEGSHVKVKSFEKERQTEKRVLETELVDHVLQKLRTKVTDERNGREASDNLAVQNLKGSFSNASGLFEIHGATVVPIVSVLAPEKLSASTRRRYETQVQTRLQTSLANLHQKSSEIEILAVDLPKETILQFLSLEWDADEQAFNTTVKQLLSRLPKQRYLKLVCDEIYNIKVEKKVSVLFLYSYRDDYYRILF
# experimentDescription: GCN2 cellular inhibition assay (AlphaScreen SureFire P-eIF2α Ser51, borrelidin-treated U2OS cells)
# Format: cell-based
# runParameters: compounds of Formula IV; biomarker assay, phosphorylated eIF2α Ser51 in borrelidin-treated U2OS cells
# IC50 per entry

FC(F)(F)c1cn2c(-c3nccc(N4CCC(C5CCOC5)C4)n3)cnc2cn1 (centres unmarked) [IV-609]    > 5 µM
CC1CN(c2ccnc(-c3cnc4cnc(C(F)(F)F)cn34)n2)CC(c2c[nH]cn2)O1 (single isomer, unassigned) [IV-405]    < 0.5 µM
C[C@H]1CN(c2ccnc(-c3cnc4cnc(C(F)(F)F)cn34)n2)C[C@@H](CNS(C)(=O)=O)C1(F)F [IV-17]    > 5 µM

State the recorded IC50 for this entry: CC1CN(c2ccnc(-c3cnc4cnc(C#N)cn34)n2)CC(c2cn[nH]c2)O1 (centres unmarked) [IV-194]
< 0.5 µM

And C[C@@H]1CCCN(c2ccnc(-c3cnc4cnc(C(F)F)cn34)n2)C1 [IV-129] ?
> 5 µM

What do we get for OCC1CCCN1c1ccnc(-c2cnc3cnc(C(F)(F)F)cn23)n1 (centres unmarked) [IV-436] ?
> 5 µM

Next up: Fc1n[nH]cc1C1CCCN(c2ccnc(-c3cnc4cnc(C(F)(F)F)cn34)n2)C1 (single isomer, unassigned) [IV-491]
< 0.5 µM

Quick one: CC(C)c1nc(C2CCCN(c3ccnc(-c4cnc5cnc(Br)cn45)n3)C2)c[nH]1 (centres unmarked) [IV-384]
0.5 to 5 µM

Hello, the source for this data is patent US10988477B2, in case you need it.
